Task for the reader: assign each of the following binders its reported t½.
- measurement_target: T1, hmm.hTfRC (REGN2431), human transferrin receptor extracellular domain with hexahistidine-myc-myc tag (human, UniProt P02786 89-760)
- T1 construct: Monomeric recombinant protein, 79210 g/mol; also called hTFR-mmh; His-myc-myc-hTFRC ecto
- T1 sequence (P02786 other isoform, or with tags, fused parts or gaps): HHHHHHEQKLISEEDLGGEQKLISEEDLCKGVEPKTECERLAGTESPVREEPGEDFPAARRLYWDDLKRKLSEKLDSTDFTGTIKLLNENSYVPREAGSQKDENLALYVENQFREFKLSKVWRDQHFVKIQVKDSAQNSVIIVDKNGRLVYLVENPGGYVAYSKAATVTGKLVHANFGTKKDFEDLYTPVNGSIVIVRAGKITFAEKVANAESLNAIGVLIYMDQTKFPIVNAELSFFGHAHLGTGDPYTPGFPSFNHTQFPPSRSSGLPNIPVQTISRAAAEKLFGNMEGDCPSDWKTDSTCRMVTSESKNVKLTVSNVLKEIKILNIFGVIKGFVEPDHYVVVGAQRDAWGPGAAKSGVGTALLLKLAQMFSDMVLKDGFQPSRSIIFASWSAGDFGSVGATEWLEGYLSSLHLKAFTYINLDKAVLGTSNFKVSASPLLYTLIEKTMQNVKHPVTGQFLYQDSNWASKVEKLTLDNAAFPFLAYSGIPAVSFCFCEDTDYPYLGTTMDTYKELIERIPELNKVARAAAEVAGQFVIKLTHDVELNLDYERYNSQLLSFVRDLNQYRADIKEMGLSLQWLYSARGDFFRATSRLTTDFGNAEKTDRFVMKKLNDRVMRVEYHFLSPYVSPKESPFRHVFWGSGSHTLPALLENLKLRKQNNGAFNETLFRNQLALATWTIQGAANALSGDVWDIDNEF
- assay_protocol: SPR (Biacore), mAb captured on anti-human Fc, 100 nM hTFR-mmh, 25 C
Hi, when you answer, please include the unit after the number. Thanks!

Given 12808B (antibody, human IgG1, kappa, V domains shown, Tested as bivalent human IgG1 from CHO primary supernatant) VH: QLQLQESGPGLVKPSETLSLTCTVSGESISSNTYYWGWIRQPPGKGLEWIGSIDYSGTTNYNPSLKSRVTISVDTSRNHFSLRLRSVTAADTAVYYCAREWGNYGYYYGMDVWGQGTTVTVSS VL: DIQMTQSPSSLSASVGDRVTINCRASQGIRNDLGWYQQKPGKAPKRLIYAASSLQSGVPLRFSGSGSGTEFTLTINNLQPEDFATYYCLSHNSYPWTFGQGTKVEIKR , state its recorded t½. 1.81 h

Given 31874B (antibody, human IgG1, kappa, V domains shown, Tested as bivalent human IgG1 from CHO primary supernatant; also called H1H31874B; REGN17517) VH: EVQLVESGGGLVQPGGSLRLSCAASGFAFSSYAMTWVRQAPGKGLEWVSVISGTGGSTYYADSVKGRFTISRDNSKNTLYLQMNSLRAEDTAVYYCAKGGAARRMEYFQYWGQGTLVTVSS VL: DIQMTQSPSSLSASVGDRVTITCRASQGISNYLAWYQQKPGKVPNLLIYAASTLQSGVPSRFSGSGSGTDFTLTISSLQPEDVATYYCQKYNSAPLTFGGGTKVEIKR , state its recorded t½. 1.68 h

Given 69348 (antibody, human IgG1, kappa, V domains shown, Tested as bivalent human IgG1 from CHO primary supernatant) VH: QVQLVESGGGVVQPGRSLRLSCAASGFTFTTYGMHWVRQAPGKGLEWVAVIWYDGSNKYYGDSVKGRFTISRDNSKNTLYLQMNSLRVDDTAVYYCTRTHGYTRSSDGFDYWGQGTLVTVSS VL: DIQMTQSPSSLSASVGDRVTITCRASQSIRNVLGWFQQKPGKAPQRLIYAASSLQSGVPSRFSGSGSGTEFTLTISSLQPEDFATYYCLQHNFYPLTFGGGTKVEIKR , state its recorded t½. 1.12 h
